The measurements presented in this section are drawn from the supplement of paper PMC3334620.

- TARGET_SYSTEM: Mot3 (UniProt P54785)
- Sequence: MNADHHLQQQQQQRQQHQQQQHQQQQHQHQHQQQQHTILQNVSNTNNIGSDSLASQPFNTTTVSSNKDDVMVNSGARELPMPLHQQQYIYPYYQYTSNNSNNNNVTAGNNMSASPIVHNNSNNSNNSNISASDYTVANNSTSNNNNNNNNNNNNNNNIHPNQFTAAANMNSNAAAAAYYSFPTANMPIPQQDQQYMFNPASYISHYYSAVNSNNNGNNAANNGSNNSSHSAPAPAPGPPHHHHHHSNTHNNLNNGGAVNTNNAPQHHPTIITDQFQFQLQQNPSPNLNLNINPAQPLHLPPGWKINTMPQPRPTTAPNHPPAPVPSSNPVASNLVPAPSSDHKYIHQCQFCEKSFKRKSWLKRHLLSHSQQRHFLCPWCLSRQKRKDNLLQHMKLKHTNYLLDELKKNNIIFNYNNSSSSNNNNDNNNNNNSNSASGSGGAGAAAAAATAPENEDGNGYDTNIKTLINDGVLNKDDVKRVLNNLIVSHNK
- TEST: PBM E-score (8-mer binding enrichment) (E-score (-0.5 to 0.5)); higher = stronger / more preferred TF binding
- CONDITIONS_USED: protein concentration: 200 nM; construct: GST-full length
Over roughly 33,000 sequences, “E-score (-0.5 to 0.5)” has its median near -0.035; the highest 2% begin near 0.34. The list comes from a sample in which the highest values are over-represented; it also holds close analogues and randomly drawn sequences.
# PBM E-score listing for each entry below
Lab note: jot the number down without any unit.

GATGTAAC = 0.175
ATGTAAAC = 0.414
AATGAGGT = -0.0627

Q: Requested field: PBM E-score. Item: AATGTCAA
Result: 0.0969

Q: Also check CAGTGTTA
Result: 0.212

Q: Continue with ACTTTCCC
Result: 0.0581

Q: Can you handle CATAGTGC next?
Result: 0.117

Q: How about GTGCCCAA ?
Result: 0.392

Q: What do you get for CATGTAAC ?
Result: 0.382

Q: What do we get for ATGAACAT ?
Result: 0.252

Q: Okay, and GACAACAC ?
Result: 0.261

Q: Try this sequence next: GGACGCTA
Result: -0.206

###

- TARGET_SYSTEM: Mot3 (UniProt P54785)
- Sequence: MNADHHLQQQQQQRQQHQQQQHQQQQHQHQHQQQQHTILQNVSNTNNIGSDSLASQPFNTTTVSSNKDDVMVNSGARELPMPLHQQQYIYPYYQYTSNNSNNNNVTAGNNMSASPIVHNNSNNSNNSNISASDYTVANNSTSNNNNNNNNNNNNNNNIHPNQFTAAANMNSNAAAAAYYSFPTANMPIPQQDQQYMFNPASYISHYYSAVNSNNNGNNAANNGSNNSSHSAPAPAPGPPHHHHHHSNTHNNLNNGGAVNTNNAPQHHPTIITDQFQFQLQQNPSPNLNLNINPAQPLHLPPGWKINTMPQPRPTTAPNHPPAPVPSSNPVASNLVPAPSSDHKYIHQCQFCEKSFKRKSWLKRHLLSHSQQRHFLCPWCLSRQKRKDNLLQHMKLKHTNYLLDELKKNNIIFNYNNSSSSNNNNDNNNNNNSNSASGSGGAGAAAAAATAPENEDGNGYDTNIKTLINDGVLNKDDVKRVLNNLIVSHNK
- TEST: PBM E-score (8-mer binding enrichment) (E-score (-0.5 to 0.5)); higher = stronger / more preferred TF binding
- CONDITIONS_USED: protein concentration: 200 nM; construct: GST-full length
Whole data set: some 33,000 sequences, median “E-score (-0.5 to 0.5)” near -0.035, cut for the highest 2% near 0.34. The entries come from a sample that favours the highest values as a whole.
Entries get a class label from measured PBM E-score. See ranges: group 1: < 0.06; group 2: ≥ 0.06 and < 0.2; group 3: ≥ 0.2

Q: For GCTGTGTA , which PBM E-score bin applies?
Result: group 3
